- Assay: Stability of mini-G proteins in detergent by native DSF
- Assay type: physicochemical
- Test context: 2 mg/ml, onset of scattering
Attribute measured: Stability in detergent measured by native DSF, 0.1% LMNG (°C)

Mini-Golf6: mini-G protein of Golf, 7 point mutations and 3 deletions from mini-Gs; SEQ ID NO:105 (protein, Mini-Golf6) MGHHHHHHENLYFQGIEKQLQKERLAYKATHRLLLLGADNSGKSTIVKQMRILHGGSGGSGGTSGIFETRFQVDKVNFHMFDVGGQRDERRKWIQCFNDVTAIIYVADCSDYNRLRESLDDFESIWNNRWLRTISIILFLNKQDMLAEKVLAGKSKIEDYFPEYANYTVPEDATPDAGEDPKVTRAKFFIRDLFLRISTATGDGKHYCYPHFTCAVDTENARRIFNDCRDIIQRMHLKQYELL | 41.9
